# target.or.test.system: Histone deacetylase (HDAC1 and HDAC2) (Homo sapiens, UniProt Q13547+Q92769)
# method: Inhibition of HDAC1/HDAC2 in human HeLa cell nuclear extract preincubated for 20 mins followed by addition of HDAC green as substrate measured after 60 mins by fluorescence analysis
# Type: cell-based
observed.property: IC50 (nM)
Write the number in nM without appending the unit.

Q: Test system Histone deacetylase (HDAC1 and HDAC2) (Homo sapiens, UniProt Q13547+Q92769); read-out IC50; what value for CCCCNCC(=O)Nc1ccc(/C(N)=N/O)cc1 ?
Ans: 282

Q: Test system Histone deacetylase (HDAC1 and HDAC2) (Homo sapiens, UniProt Q13547+Q92769); read-out IC50; what value for N/C(=N\O)c1ccc(NC(=O)CCNCCc2ccccc2)cc1 ?
Ans: 273

Q: Test system Histone deacetylase (HDAC1 and HDAC2) (Homo sapiens, UniProt Q13547+Q92769); read-out IC50; what value for N/C(=N\O)c1ccc(NC(=O)NCCc2ccccc2)cc1 ?
Ans: 304

Q: Test system Histone deacetylase (HDAC1 and HDAC2) (Homo sapiens, UniProt Q13547+Q92769); read-out IC50; what value for O=C(NCCc1ccccc1)Nc1ccc(C(=O)NO)cc1 ?
Ans: 582

Q: Test system Histone deacetylase (HDAC1 and HDAC2) (Homo sapiens, UniProt Q13547+Q92769); read-out IC50; what value for N/C(=N\O)c1ccc(NC(=O)CNCCc2ccccc2)cc1 ?
Ans: 93

Next:
Q: Test system Histone deacetylase (HDAC1 and HDAC2) (Homo sapiens, UniProt Q13547+Q92769); read-out IC50; what value for CCCCCCNCCC(=O)Nc1ccc(/C(N)=N/O)cc1 ?
Ans: 602

Q: Test system Histone deacetylase (HDAC1 and HDAC2) (Homo sapiens, UniProt Q13547+Q92769); read-out IC50; what value for N/C(=N\O)c1ccc(NC(=O)CCCNCCc2ccccc2)cc1 ?
Ans: 697

Q: Test system Histone deacetylase (HDAC1 and HDAC2) (Homo sapiens, UniProt Q13547+Q92769); read-out IC50; what value for CCCCNC(=O)Nc1ccc(/C(N)=N/O)cc1 ?
Ans: 591

Q: Test system Histone deacetylase (HDAC1 and HDAC2) (Homo sapiens, UniProt Q13547+Q92769); read-out IC50; what value for CCCCCCNCC(=O)Nc1ccc(/C(N)=N/O)cc1 ?
Ans: 381

Q: Test system Histone deacetylase (HDAC1 and HDAC2) (Homo sapiens, UniProt Q13547+Q92769); read-out IC50; what value for CCCCNCCCC(=O)Nc1ccc(/C(N)=N/O)cc1 ?
Ans: 723

Q: Test system Histone deacetylase (HDAC1 and HDAC2) (Homo sapiens, UniProt Q13547+Q92769); read-out IC50; what value for CCCCCCNC(=O)Nc1ccc(/C(N)=N/O)cc1 ?
Ans: 599

Q: Test system Histone deacetylase (HDAC1 and HDAC2) (Homo sapiens, UniProt Q13547+Q92769); read-out IC50; what value for CCCCNCCC(=O)Nc1ccc(/C(N)=N/O)cc1 ?
Ans: 528
